# Measurement target: Hco-UNC-49BC (Haemonchus contortus)
# Assay details: two-electrode voltage clamp, Xenopus oocytes
Observed property: EC50 (µM)
Just the number please, in µM, no unit attached.

# compound NCCCC(=O)O [GABA] ; its EC50 = 68

====

# Measurement target: Hco-UNC-49BC (Haemonchus contortus, UniProt D6BK80, R241K)
# Assay details: two-electrode voltage clamp, Xenopus oocytes
Observed property: pEC50
// pEC50: -log10(molar conc.)

# compound NCCCC(=O)O ; its pEC50 = 2.42

====

# Measurement target: Hco-UNC-49BC (Haemonchus contortus, UniProt D6BK80, D83E)
# Assay details: two-electrode voltage clamp, Xenopus oocytes
Observed property: pEC50
// pEC50: -log10(molar conc.)

# compound NCCCC(=O)O ; its pEC50 = 3.56

// provenance: paper PMC6287672
